test system: NCI-H226 lung; test: NCI tumour cell line growth inhibition, 48 h
Exercise: for every item that follows, state its recorded TGI.

Before answering, review these 5 worked examples.
CCCOc1ccc(/C=N/Nc2cc(C)nc3ccc(Cl)cc23)cc1    3.35 µM
Cc1ccc(SCC(CF)OC(C)n2cnc3c(Cl)nc(N)nc32)cc1 (stereo not drawn)    > 100 µM
Cc1ccc(S(=O)(=O)ON2C(=O)c3c(N)c(C#N)c(-c4ccccc4)c(-c4ccccc4)c3C2=O)cc1    38.7 µM
Cc1cnc2c(c1)C(=O)N(c1ccc([N+](=O)[O-])cc1)S2(=O)=O    78.5 µM
O=c1nc2c(c(-c3ccc(F)cc3)[nH]1)COC/C2=C\c1ccc(F)cc1    > 100 µM

For every item below, please supply its TGI.
1. C/C(=N\O)C1CC2C=C(C#N)C1N(Cc1ccccc1)C2 (stereo not drawn)
2. COc1cc(/C=C/C(=O)c2c(C)nc3ccccc3c2C)ccc1OCCCCOc1cc2c(cc1OC)C(=O)N1CCC[C@H]1C=N2
3. O=C1CCCCC1C(O)(C(F)(F)F)C(F)(F)Cl (stereo not drawn)
4. C/C(=N/NC(=S)N1CC2CCC(CC2)C1)c1cnccn1
5. CCOC(=O)Nc1n[nH]nc1Cl
6. CC[C@@H]1CC[C@@H]2[C@H](CC[C@]3(C)[C@@H](OC(C)=O)CC[C@@H]23)[C@H]1C(=O)OC
7. O=C1CCSc2nc(-c3ccc4c(c3)OCO4)nn21
8. COc1cc2c(cc1O)Cc1c-2[n+](C)cc2cc(OC)c(OC)cc12

Reply |
["> 100 µM", "3.26 µM", "> 10 µM", "1.33 µM", "> 100 µM", "38 µM", "> 10 µM", "> 100 µM"]
